# protocolText: amyloid nucleation score (Sup35N fusion, yeast selection) (log enrichment); library NNK2; higher = more nucleation; inactive = no reads after selection;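 further: zero at mode of non-aggregating sequences after 7 days selection at 30°C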
Recorded amyloid nucleation score determines the label; the label ranges are bin 1 (below -0.1), bin 2 (-0.1 to below 0.4), bin 3 (0.4 or more)

Below, 3 substances whose answers are already recorded.
| substance | classLabel |
| --- | --- |
| TRYRLDACRGHAWYSVFFLM | bin 1 |
| SIVFFNRC | bin 3 |
| RARGIV | bin 1 |

[in] Returns: class label. Input: AVRVGGTGFRVRS
[out] bin 1

[in] Returns: class label. Input: RFGLGINLLIGVRLLCLALL
[out] bin 2

[in] Returns: class label. Input: NSRLMMCEIPERCM
[out] bin 3

[in] Returns: class label. Input: RNGLILCLGEVVMSSMESVT
[out] bin 1

[in] Returns: class label. Input: GFRSLNVSRANLCSYIRHLL
[out] bin 2
